target: BAF60A^YLD+SWIB (BAF60A residues 144-407) (human, UniProt Q96GM5 144-407); test: fluorescence polarisation
outcome-measure: pIC50
Quick note: pIC50 values are minus log10 of concentrations in mol/L.

The measured pIC50 associated with FTELQSVQPPQLQQLYRHMELEQMHVLDTPM (peptide, UniProt P17947 70-100, looked up) [PU.1[70–100]] reads 5.63
